Values compiled from patent US10829473B2.

The reader will find reported Emax values listed item by item below.
assay system: F508delCFTR (Homo sapiens, UniProt P13569, DEL508-508)
Construct: expressed in transfected cells; host or cells: CFBE41o- human lung derived epithelial cells (CFBE41o-F508delCFTR-HRP), doxycycline-inducible
Sequence (P13569 with tags, fused parts or gaps DEL508-508): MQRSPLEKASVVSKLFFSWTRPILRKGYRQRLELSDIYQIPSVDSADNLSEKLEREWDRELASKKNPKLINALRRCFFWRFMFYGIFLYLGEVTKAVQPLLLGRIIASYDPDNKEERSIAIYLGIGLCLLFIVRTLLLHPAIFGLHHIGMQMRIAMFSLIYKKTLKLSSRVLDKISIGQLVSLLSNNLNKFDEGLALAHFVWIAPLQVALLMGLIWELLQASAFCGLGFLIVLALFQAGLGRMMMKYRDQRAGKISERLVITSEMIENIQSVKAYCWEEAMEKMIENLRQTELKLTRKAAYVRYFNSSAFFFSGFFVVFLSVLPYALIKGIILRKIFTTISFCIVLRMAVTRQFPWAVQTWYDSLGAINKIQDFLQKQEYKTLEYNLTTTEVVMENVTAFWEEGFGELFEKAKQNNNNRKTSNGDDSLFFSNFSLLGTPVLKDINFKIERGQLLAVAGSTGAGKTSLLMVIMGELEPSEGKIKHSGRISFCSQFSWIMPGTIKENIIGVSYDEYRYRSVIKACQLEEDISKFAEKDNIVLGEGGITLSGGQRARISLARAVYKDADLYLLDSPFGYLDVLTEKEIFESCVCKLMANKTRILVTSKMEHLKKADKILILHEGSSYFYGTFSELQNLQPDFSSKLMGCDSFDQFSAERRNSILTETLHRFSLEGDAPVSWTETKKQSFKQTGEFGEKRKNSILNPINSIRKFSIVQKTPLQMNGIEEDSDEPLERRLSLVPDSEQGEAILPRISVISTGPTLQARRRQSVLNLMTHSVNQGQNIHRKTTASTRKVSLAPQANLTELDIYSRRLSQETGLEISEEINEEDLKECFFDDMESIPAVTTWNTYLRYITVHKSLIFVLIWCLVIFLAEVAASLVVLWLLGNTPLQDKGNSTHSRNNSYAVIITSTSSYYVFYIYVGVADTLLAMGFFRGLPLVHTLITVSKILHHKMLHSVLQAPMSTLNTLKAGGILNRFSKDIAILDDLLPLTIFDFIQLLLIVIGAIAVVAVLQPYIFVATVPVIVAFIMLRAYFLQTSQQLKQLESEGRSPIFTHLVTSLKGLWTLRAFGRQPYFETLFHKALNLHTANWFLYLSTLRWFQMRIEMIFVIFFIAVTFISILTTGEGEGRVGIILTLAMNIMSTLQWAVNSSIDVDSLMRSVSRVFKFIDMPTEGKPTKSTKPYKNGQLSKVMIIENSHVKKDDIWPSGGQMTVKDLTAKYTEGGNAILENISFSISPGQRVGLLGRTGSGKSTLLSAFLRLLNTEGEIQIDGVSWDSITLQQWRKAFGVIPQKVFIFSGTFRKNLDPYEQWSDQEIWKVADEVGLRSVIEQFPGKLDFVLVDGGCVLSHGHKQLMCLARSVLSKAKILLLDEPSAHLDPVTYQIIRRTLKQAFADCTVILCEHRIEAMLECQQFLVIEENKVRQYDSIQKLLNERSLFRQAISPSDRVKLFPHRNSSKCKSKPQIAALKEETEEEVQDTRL
assay method text: Cell Surface Expression-Horse Radish Peroxidase (CSE-HRP) Assay;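 note: % of on-plate positive control chromenyl benzoic acid corrector at 2 or 3 µM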
Format: cell-based
test context: without co-corrector; maximum at any tested concentration; read-out: Maximum % activity (without co-corrector)

Sample answers from the record:
| compound structure | Emax |
| --- | --- |
| COc1ccc(C2CCC2)cc1C1(C(=O)NS(=O)(=O)c2cccc3nc(N)ccc23)CC1 | > 150% |
| Cc1ccc(OC(C)C)c(C2(C(=O)NS(=O)(=O)c3cccc4nc(N)ccc34)CC2)c1 | > 150% |
| COc1ccc(C2CCC2)cc1C1(C(=O)NS(=O)(=O)c2cccc3ncn(C)c23)CCC1 | > 150% |

--- query ---
So for `O=C(NS(=O)(=O)c1ccc(Cl)cc1)C1(c2ccc(Cl)cc2Cl)CC1` , the logged Emax turned out to be < 50%
